Source listed as PubChem BioAssay (NCI).

# Tested on: KM12 colon
# assay_overview: NCI tumour cell line growth inhibition, 48 h
observed_property: TGI (µM)
Express it in µM; write the number only.

compound=COc1ccc2c(Nc3ccc(NS(C)(=O)=O)cc3)c3ccccc3nc2c1 measurement=9.19
compound="CCN1C(=S)N(CC)C2C1NC(=S)N2/N=C/C=C/c1ccccc1 (stereo unspecified)" measurement=14.7
compound="COC1CC2C=C(C)/C=C/C=C/C(=O)NC(c3ccccc3)C/C=C/CCC(O)CC(=O)C2=C1O (stereo unspecified)" measurement=1.26

I would be grateful if you could share the reported TGI for O=C1C(F)=CC(COC(c2ccccc2)(c2ccccc2)c2ccccc2)OC1n1cc(F)c(=O)[nH]c1=O (stereo unspecified) .
7.72

----------
# Tested on: SK-MEL-5 melanoma
# assay_overview: NCI tumour cell line growth inhibition, 48 h; in the data active = GI50 below about 0.43 µM; inactive = the rest
Tick one outcome: Y (active), N (inactive)

compound_structure=Cn1c(=O)c(Oc2ccccc2F)cc2cnc(NC3CCOCC3)nc21 class_name=N
compound_structure=Cc1sc(C)c(Cc2c(C)sc(C)c2CCl)c1CCl class_name=N
compound_structure=Nc1nnc2cc(Cl)ccc2n1 class_name=N
compound_structure=COCCOC(=O)NC(=O)Nc1ccc(/C(=N/O)c2ccc(Cl)cc2)cc1 class_name=Y

// outcome(item) with item = Cc1cc(C)c(C[N+](C)(C)C)c(C)c1C
Y

// outcome(item) with item = O=c1nc(Nc2cccc(Cl)c2)oc2cc(Cl)oc(=O)c12
N

----------
# System: KM12 colon
Tick one outcome: true (1) = active, false (0) = inactive

# example entries with known answers
compound=COc1cc2c3c(c1)c1cc(OC)c(OC)cc1c[n+]3CC2 target_system="KM12 colon" class_name="false (0)"
compound=CCOC(=O)c1[nH]c(-c2ccc(Cl)cc2)cc1-c1cccnc1 target_system="KM12 colon" class_name="false (0)"
compound=CC(C)c1ccc(C(=O)Nc2sc3c(c2C#N)CCC(=O)C3)cc1 target_system="KM12 colon" class_name="true (1)"
compound="OCC1OC(n2ccc3c(NO)ncnc32)C(O)C1O (centres undefined)" target_system="KM12 colon" class_name="true (1)"
compound="O=S(=O)(NCC1CCC(CNc2ccc(Cl)cc2)CC1)c1ccc(-c2ccccc2)cc1 (centres undefined)" target_system="KM12 colon" class_name="false (0)"
compound=Cc1nc2sc(C(=O)Nc3cccc4ccccc34)c(N)c2cc1C(=O)c1ccccc1 target_system="KM12 colon" class_name="false (0)"

// outcome(item) with item = CCCCCCCCCCN(CCCCCCCCCC)CC(=O)c1ccc2cc(Br)c3ccccc3c2c1
false (0)

// outcome(item) with item = O=C(Nc1ccc(Cl)cc1)c1ccc(NC2=C(Cl)C(=O)N(Cc3ccccc3)C2=O)cc1
false (0)

// outcome(item) with item = O=c1nc(Nc2cccc(Cl)c2)oc2cc(Cl)oc(=O)c12
false (0)

// outcome(item) with item = Cn1c(=O)c(Oc2ccccc2F)cc2cnc(NC3CCOCC3)nc21
false (0)

// outcome(item) with item = CC(=O)[C@@H]1CCC=C2CC[C@]3(C)[C@@H](CC[C@@H]4[C@@]5(C)CCCNC(C)(C)[C@@H]5CC[C@]43C)[C@H]21
false (0)

// outcome(item) with item = CC1(C)OC(=O)C=C([O-])O1.CC1(C)OC(=O)C=C([O-])O1.O=S(=O)([O-])c1ccc([O-])c2ncccc12.O=S(=O)([O-])c1ccc([O-])c2ncccc12.[Ti+4]
false (0)

// outcome(item) with item = COc1ccccc1NC(=O)n1nc(N)c2ccccc21
false (0)

// outcome(item) with item = NC(=O)c1cc(Br)cc(C2CCCCC2)c1O
false (0)

// outcome(item) with item = COCCOC(=O)NC(=O)Nc1ccc(/C(=N/O)c2ccc(Cl)cc2)cc1
true (1)

// outcome(item) with item = CC(=O)O[C@H]1CC[C@@]2(C)C(=CC[C@H]3[C@@H]4C/C(=C\c5cccc(OCCN6CCOCC6)c5)[C@H](OC(C)=O)[C@@]4(C)CC[C@@H]32)C1
false (0)

// outcome(item) with item = CN(C)CCCN1c2nc3ccccc3cc2Sc2cc3ccccc3nc21
false (0)

// outcome(item) with item = N#Cc1cnc2cc(OC[C@@H](O)CO)c(NC(=O)CC3CSSC3)cc2c1Nc1ccc(OCc2cccc(F)c2)c(Cl)c1
true (1)

// outcome(item) with item = Cc1cc(C)c(C[N+](C)(C)C)c(C)c1C
true (1)
